Please go through the items and note down their antithrombin activity (ATU/mg).
Target: thrombin (of the antithrombin activity assay, species not stated)
Experiment: cell-based or functional assay
Kindly answer with a numeric value in ATU/mg, unit omitted.

Lookup: Value lookup for antithrombin activity (ATU/mg); key = NGDFEEIPEEYL (not fully specified) [hirugen (printed 'Hirogen')]
Found: 1000

Lookup: Record request: antithrombin activity (ATU/mg) value, item NIF-hirudin hybrid (NHH), NIF-(Gly)5-hirugen (other) NEHNLRCPQNGTEMPGFNDSIRLQFLAMHNGYRSKLALGHISITEESESDDDDDFGFLPDFAPRASKMRYLEYDCEAEKSAYMSARNCSDSSSPPEGYDENKYIFENSNNISEAALKAMISWAKEAFNLNKTKEGEGVLYRSNHDISNFANLAWDAREKFGCAVVNCPLGEIDDETNHDGETYATTIHVVCHYPKINKTEGQPIYKVGTPCDDCSEYTKKADNTTSADPVCIPDDGVCFIGSKADYDSKEFYRFRELGGGGGNGDFEEIPEEYL
Found: 800

Lookup: Fill blank: measured antithrombin activity (ATU/mg) of the binder recombinant chimeric protein of neutrophil inhibitory factor and hirugen (TNHH), Met-NIF-GGGGG-FPRPGSGG-Hirugen (other) MNEHNLRCPQNGTEMPGFNDSIRLQFLAMHNGYRSKLALGHISITEESESDDDDDFGFLPDFAPRASKMRYLEYDCEAEKSAYMSARNCSDSSSPPEGYDENKYIFENSNNISEAALKAMISWAKEAFNLNKTKEGEGVLYRSNHDISNFANLAWDAREKFGCAVVNCPLGEIDDETNHDGETYATTIHVVCHYPKINKTEGQPIYKVGTPCDDCSEYTKKADNTTSADPVCIPDDGVCFIGSKADYDSKEFYRFRELGGGGGFPRPGSGGNGDFEEIPEEYL is ____.
Found: 1200

Lookup: # input binder: TNHH-G15/n3, NIF-(Gly)15-FPRP-(GSGG)3-hirugen (other) MNEHNLRCPQNGTEMPGFNDSIRLQFLAMHNGYRSKLALGHISITEESESDDDDDFGFLPDFAPRASKMRYLEYDCEAEKSAYMSARNCSDSSSPPEGYDENKYIFENSNNISEAALKAMISWAKEAFNLNKTKEGEGVLYRSNHDISNFANLAWDAREKFGCAVVNCPLGEIDDETNHDGETYATTIHVVCHYPKINKTEGQPIYKVGTPCDDCSEYTKKADNTTSADPVCIPDDGVCFIGSKADYDSKEFYRFRELGGGGGGGGGGGGGGGFPRPGSGGGSGGGSGGNGDFEEIPEEYL ; wanted: its antithrombin activity (ATU/mg)
Found: 1200
